Test system: NCI-H196 SCLC complex tumor spheroid viability
Experiment: Anticancer human tumor NCI-H196 cell line growth inhibition;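 further: spheroids exposed to compounds for 7 days before readout; 100% = DMSO vehicle control wells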
Details: second compound 31.6 µM; first compound 0.0316 µM; stronger effect = lower value
Below, each entry is listed with its recorded viability, T/C.
Your answer should be a plain number; it is taken to be in %.

Take a look at these entries with their results.
{"compound": "[2H]c1nc(C)nc([2H])c1-c1cc(NC[C@@H](C)c2cccc3c(C(=O)NC)ccnc23)ncn1 + Cn1nnc2c(C(N)=O)ncn2c1=O", "viability, T/C, %": 109}
{"compound": "COc1ccc([C@@H](O)c2cc(-c3ncnc4cc(N5CCOCC5)ccc34)c(F)cc2Cl)nn1 + Cn1nnc2c(C(N)=O)ncn2c1=O", "viability, T/C, %": 109}
{"compound": "Cc1cc(C)c(CNC(=O)c2cc(-c3ccc(CN4CCOCC4)cc3)cc3c2cnn3C2CCCC2)c(=O)[nH]1 + Cn1nnc2c(C(N)=O)ncn2c1=O", "viability, T/C, %": 98.5}

*Q* viability, T/C for COc1cc(C)[nH]c(=O)c1CN1CCc2c(Cl)cc(C(OC)C3COC3)c(Cl)c2C1=O (stereo unspecified) + Cn1nnc2c(C(N)=O)ncn2c1=O ?
*A* 104

*Q* Item under review: CC(C)n1c(=O)n(C)c2cnc3cc(F)c(-c4ccc(OCCCN5CCCCC5)nc4)cc3c21 + Cn1nnc2c(C(N)=O)ncn2c1=O . Reported viability, T/C?
*A* 103

*Q* Please report the recorded viability, T/C for CC1COCCN1c1cc(-c2ccnn2C)c2ccnc(-c3ccn[nH]3)c2n1 (stereo unspecified) + Cn1nnc2c(C(N)=O)ncn2c1=O .
*A* 95.2

---

Test system: NCI-H196 SCLC complex tumor spheroid viability
Assay: Anticancer human tumor NCI-H196 cell line growth inhibition;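 further: spheroids exposed to compounds for 7 days before readout; 100% = DMSO vehicle control wells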
Conditions: second compound 0.3 µM; first compound 0.949 µM; stronger effect = lower value
endpointLabel: viability, T/C

Field: example entries. Status: answers known.
{"compound": "Cn1ncnc1[C@H]1c2n[nH]c(=O)c3cc(F)cc(c23)N[C@@H]1c1ccc(F)cc1 + CC[C@@]1(O)C(=O)OCc2c1cc1n(c2=O)Cc2cc3c(CN(C)C)c(O)ccc3nc2-1", "measurementTarget": "NCI-H196 SCLC complex tumor spheroid viability", "viability, T/C": "91.2%"}
{"compound": "Cc1sc2c(c1C)C(c1ccc(Cl)cc1)=NC(CC(=O)Nc1ccc(O)cc1)c1nnc(C)n1-2 (centres undefined) + CC[C@@]1(O)C(=O)OCc2c1cc1n(c2=O)Cc2cc3c(CN(C)C)c(O)ccc3nc2-1", "measurementTarget": "NCI-H196 SCLC complex tumor spheroid viability", "viability, T/C": "40.1%"}
{"compound": "O=C(c1cc(Cc2n[nH]c(=O)c3ccccc23)ccc1F)N1CCN(C(=O)C2CC2)CC1 + CC[C@@]1(O)C(=O)OCc2c1cc1n(c2=O)Cc2cc3c(CN(C)C)c(O)ccc3nc2-1", "measurementTarget": "NCI-H196 SCLC complex tumor spheroid viability", "viability, T/C": "88.4%"}

Query compound follows.
*Q* Tell me the measured viability, T/C of CNCc1ccc(-c2cc(-c3nc(-c4ccc(S(=O)(=O)C(C)C)cc4)cnc3N)on2)cc1 + CC[C@@]1(O)C(=O)OCc2c1cc1n(c2=O)Cc2cc3c(CN(C)C)c(O)ccc3nc2-1 , please.
*A* 65%
